Target: CBP (Homo sapiens, UniProt Q92793)
Sequence (Q92793 2-2442 limits assumed): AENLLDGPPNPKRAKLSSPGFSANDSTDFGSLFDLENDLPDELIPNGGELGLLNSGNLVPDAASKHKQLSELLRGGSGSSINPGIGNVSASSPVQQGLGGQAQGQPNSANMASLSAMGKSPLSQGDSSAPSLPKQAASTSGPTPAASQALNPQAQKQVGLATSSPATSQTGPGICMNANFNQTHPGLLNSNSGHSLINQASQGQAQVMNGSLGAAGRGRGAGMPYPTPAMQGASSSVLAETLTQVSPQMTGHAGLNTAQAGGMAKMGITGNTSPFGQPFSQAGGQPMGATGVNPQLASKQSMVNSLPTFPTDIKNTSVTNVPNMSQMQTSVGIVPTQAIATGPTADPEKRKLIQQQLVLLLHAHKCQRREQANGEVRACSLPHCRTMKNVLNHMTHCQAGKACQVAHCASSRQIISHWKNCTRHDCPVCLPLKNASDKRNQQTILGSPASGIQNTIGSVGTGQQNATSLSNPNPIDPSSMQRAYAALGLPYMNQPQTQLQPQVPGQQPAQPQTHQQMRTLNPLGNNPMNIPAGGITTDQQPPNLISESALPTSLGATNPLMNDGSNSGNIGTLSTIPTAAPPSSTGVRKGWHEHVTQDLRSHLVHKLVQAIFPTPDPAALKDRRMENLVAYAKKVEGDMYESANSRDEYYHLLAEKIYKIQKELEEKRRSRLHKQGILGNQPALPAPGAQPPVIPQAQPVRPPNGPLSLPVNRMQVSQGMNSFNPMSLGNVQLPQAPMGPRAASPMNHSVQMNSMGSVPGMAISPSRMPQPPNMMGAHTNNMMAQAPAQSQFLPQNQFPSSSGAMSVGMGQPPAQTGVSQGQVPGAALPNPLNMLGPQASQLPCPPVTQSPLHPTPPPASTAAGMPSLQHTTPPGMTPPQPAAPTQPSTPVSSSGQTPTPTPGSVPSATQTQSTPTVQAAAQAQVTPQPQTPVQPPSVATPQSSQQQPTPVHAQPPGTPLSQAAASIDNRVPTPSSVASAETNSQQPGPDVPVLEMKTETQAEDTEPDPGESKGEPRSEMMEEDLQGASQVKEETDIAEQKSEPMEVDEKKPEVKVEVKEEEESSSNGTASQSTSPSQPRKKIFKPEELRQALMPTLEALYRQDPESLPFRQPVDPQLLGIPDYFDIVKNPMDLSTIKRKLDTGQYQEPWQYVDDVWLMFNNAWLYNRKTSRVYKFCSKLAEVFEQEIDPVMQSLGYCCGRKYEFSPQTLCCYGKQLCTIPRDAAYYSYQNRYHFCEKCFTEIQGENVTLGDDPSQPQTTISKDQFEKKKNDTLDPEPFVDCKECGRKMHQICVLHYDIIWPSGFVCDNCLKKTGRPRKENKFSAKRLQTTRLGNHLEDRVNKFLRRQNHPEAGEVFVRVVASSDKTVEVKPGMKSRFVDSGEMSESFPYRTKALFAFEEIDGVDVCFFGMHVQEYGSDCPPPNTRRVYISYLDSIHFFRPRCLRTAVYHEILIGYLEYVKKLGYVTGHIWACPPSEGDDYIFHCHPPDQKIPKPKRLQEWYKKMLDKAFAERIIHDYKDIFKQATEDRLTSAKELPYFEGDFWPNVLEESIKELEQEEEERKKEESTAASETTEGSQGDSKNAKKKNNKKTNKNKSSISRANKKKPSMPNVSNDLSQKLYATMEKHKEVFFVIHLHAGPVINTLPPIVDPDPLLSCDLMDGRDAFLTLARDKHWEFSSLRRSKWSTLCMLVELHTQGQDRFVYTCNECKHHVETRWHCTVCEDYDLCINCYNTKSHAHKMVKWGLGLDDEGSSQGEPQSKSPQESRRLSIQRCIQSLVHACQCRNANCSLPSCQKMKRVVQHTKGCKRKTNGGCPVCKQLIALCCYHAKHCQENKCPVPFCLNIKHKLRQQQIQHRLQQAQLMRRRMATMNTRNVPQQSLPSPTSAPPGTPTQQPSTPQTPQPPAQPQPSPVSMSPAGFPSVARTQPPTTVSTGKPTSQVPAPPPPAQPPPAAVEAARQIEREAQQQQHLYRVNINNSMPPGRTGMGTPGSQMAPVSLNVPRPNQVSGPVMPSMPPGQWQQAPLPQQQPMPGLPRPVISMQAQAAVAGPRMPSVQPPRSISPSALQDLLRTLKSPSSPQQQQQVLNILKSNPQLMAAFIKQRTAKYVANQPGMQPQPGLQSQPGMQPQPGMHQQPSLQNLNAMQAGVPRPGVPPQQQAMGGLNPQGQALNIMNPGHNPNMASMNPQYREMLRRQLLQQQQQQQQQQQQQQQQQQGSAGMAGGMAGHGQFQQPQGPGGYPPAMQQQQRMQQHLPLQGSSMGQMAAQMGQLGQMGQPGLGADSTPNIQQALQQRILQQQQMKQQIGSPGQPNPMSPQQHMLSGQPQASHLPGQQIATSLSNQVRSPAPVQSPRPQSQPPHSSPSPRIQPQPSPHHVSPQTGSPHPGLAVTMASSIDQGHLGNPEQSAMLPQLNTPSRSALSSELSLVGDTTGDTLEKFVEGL
Test: In vitro CBP inhibition (AlphaScreen, biotinylated H4-tetraacetyl peptide)
Type: binding
Conditions: read-out: CBP IC50
Measured attribute: IC50

# annotated cases, reported IC50 shown
CN(C)CCCOc1ccc(-c2cc(=O)n(C)cc2-c2cnn(-c3cccc(Cl)c3C#N)c2)cn1	< 0.5 µM
CNC(=O)[C@@H]1CCN(c2cc(=O)n(C)cc2-c2cnn(Cc3ccccc3)c2)C1	< 0.5 µM

The record that follows has no IC50 shown yet.
What measured IC50 goes with CCOc1cc(=O)n(C)cc1-c1cnn(C(C)c2ccccc2)c1 (stereo not drawn) ?
< 0.5 µM
